Target: T1, human leukocyte elastase (hLE) (human), P08246
T1 chain: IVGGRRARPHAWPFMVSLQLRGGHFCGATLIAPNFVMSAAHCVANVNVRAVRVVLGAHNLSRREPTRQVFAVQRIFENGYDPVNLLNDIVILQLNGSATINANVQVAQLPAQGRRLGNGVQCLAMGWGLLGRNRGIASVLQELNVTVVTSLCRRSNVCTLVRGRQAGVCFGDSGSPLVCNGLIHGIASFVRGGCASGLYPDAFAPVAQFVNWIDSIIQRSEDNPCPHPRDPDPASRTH
Conditions: modification not given
Measurement kind: pKi
One number for each entry, as −log10 of the molar value.

Query: # lookup: pKi of EILIFWSKAIGYSFT [peptide 22]
Result: 5.52
